meta.source: paper PMC9482650

Molecular target: T1, SNTA1, Q13424
T1 sequence (Q13424 82-180, limits assumed, looked up): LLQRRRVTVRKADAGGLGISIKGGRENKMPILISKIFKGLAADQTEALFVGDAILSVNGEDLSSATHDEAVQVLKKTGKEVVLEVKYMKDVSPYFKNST
Test: holdup assay
Design: key: below the threshold = too weak to quantify, mostly under pKd 3.1 to 4
Details: plain residues with an end cap or a label only (N-terminal biotin on a linker: ahx)
Value Kind: pKd

[
  {
    "Binder": "LSDPSVSTVV [GRIN1, Q05586]",
    "Experimental Result": 3.68
  },
  {
    "Binder": "GYDWGPATDL [TJP3, O95049]",
    "Experimental Result": 4.07
  },
  {
    "Binder": "TVICWPGSLV [LNX2, Q8N448]",
    "Experimental Result": 3.96
  },
  {
    "Binder": "HNAFLSVTTV [PDZRN4, Q6ZMN7]",
    "Experimental Result": 3.56
  },
  {
    "Binder": "RRRKRKRTYL [HPV49-L2, P36762]",
    "Experimental Result": 3.69
  }
]
